- study-target: KRAS-WT (Homo sapiens, UniProt P01116)
- Sequence (P01116 with tags, fused parts or gaps isoform P01116-2): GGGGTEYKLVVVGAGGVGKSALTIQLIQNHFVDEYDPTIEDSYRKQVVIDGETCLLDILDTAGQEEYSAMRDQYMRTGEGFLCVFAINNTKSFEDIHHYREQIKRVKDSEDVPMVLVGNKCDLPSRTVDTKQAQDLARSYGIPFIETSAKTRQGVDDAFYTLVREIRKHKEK
- experiment-notes: SOS-catalyzed nucleotide exchange assay (Procedure A, TR-FRET), KRAS-WT
- Format: biochemical
- setup-conditions: nucleotide exchange, read-out: KRAS WT GNE IC50
pIC50: −log10 of the molar value.
As shown below, each of these compounds has a reported pIC50 value.

compound	pIC50
C[C@@]1(O)COCCN(c2nc(OC[C@@]34CCCN3C[C@H](F)C4)nc3sc4c(-c5c6c(cc7[nH]ncc57)CCC6C(F)(F)F)nccc4c23)C1 (stereo partly drawn)	6.32
Cc1cc2[nH]ncc2c(-c2nccc3c2sc2nc(OC[C@@]45CCCN4C[C@H](F)C5)nc(N4CCOC[C@@](C)(O)C4)c23)c1SC(F)(F)F	6.43
COC1CC2(C1)CN(C[C@@]1(COc3nc(N4CCOC[C@@](C)(O)C4)c4c(n3)sc3c(-c5c(C6(F)CC6)c(Cl)cc6[nH]ncc56)nccc34)CC1(F)F)C2	7.94
C[C@@]1(O)COCCN(c2nc(OC[C@]3(CN4CC(CF)C4)CC3(F)F)nc3sc4c(-c5c(C6(F)CC6)c(Cl)cc6[nH]ncc56)nccc4c23)C1	7.63
C=CC(F)(F)c1c(C)cc2[nH]ncc2c1-c1nccc2c1sc1nc(OC[C@@]34CCCN3C[C@H](F)C4)nc(N3CCOC[C@@](C)(O)C3)c12	6.71
Cc1cc2[nH]nc(C#N)c2c(-c2nccc3c4c(N5CCOC[C@@](C)(O)C5)nc(OC[C@@]56CCCN5C[C@H](F)C6)nc4n(C)c23)c1C(F)F (single isomer, unassigned)	5.87

###

- study-target: KRAS-G12V (Homo sapiens, UniProt P01116, G12V)
- Sequence (P01116 with tags, fused parts or gaps isoform P01116-2 G12V): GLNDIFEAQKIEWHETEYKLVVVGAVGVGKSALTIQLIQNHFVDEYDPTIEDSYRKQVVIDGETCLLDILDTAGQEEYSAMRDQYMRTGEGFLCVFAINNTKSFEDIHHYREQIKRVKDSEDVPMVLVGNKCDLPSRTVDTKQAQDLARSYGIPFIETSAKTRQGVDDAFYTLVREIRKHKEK
- experiment-notes: SOS-catalyzed nucleotide exchange assay (Procedure A, TR-FRET), KRAS-G12V
- Type: biochemical
- setup-conditions: nucleotide exchange, read-out: KRAS G12V GNE IC50
Exam item: assign 1.0 to entries whose IC50 is below 200 nM and 0.0 to entries at or above 200 nM. Note that a value of exactly 200 nM receives 0.0.

compound	study-target	label
Cn1ccc2cc3[nH]ncc3c(-c3nccc4c3sc3nc(OC[C@@]56CCCN5C[C@H](F)C6)nc(N5CCOC[C@@](C)(O)C5)c34)c21 [Ex-46]	KRAS-G12V (Homo sapiens, UniProt P01116, G12V)	1.0
C[C@@]1(O)COCCN(c2nc(OC[C@@]34CCCN3C[C@]3(CC3(F)F)C4)nc3sc4c(-c5c(C6CC6)c(Cl)cc6[nH]ncc56)nccc4c23)C1 [Ex-212]	KRAS-G12V (Homo sapiens, UniProt P01116, G12V)	1.0
C[C@@]1(O)COCCN(c2nc(OC[C@@]34CCCN3C[C@H](F)C4)nc3sc4c(-c5c(-c6cc[nH]c6)c(Cl)cc6[nH]ncc56)nccc4c23)C1 [Ex-73]	KRAS-G12V (Homo sapiens, UniProt P01116, G12V)	1.0
CCC1=CC(F)(F)c2cc3[nH]ncc3c(-c3nccc4c3sc3nc(OC[C@@]56CCCN5C[C@H](F)C6)nc(N5CCOC[C@@](C)(O)C5)c34)c21 [Ex-114]	KRAS-G12V (Homo sapiens, UniProt P01116, G12V)	0.0
CCC1c2c(cc3[nH]ncc3c2-c2nccc3c2sc2nc(OC[C@@]45CCCN4C/C(=C\F)C5)nc(N4CCOC[C@@](C)(O)C4)c23)CC1(F)F (single isomer, unassigned) [Ex-109]	KRAS-G12V (Homo sapiens, UniProt P01116, G12V)	1.0
Cc1cc2[nH]ncc2c(-c2nccc3c2sc2nc(OC[C@@]45CCCN4C[C@H](F)C5)nc(N4CCOC(CO)C4)c23)c1C(F)(F)F (stereo partly drawn) [Ex-180]	KRAS-G12V (Homo sapiens, UniProt P01116, G12V)	0.0

###

Listing: pIC50 of selected compounds
- study-target: KRAS-WT (Homo sapiens, UniProt P01116)
- experiment-notes: SOS-catalyzed nucleotide exchange assay (Procedure A, TR-FRET), KRAS-WT
- Type: biochemical
- setup-conditions: nucleotide exchange, read-out: KRAS WT GNE IC50
pIC50: −log10 of the molar value.
measurement-type: pIC50

compound	numeric-result
Cc1cc2[nH]ncc2c(-c2nccc3c2sc2nc(OC[C@@]45CCCN4C[C@H](F)C5)nc(N4CCOCC5(CCCO5)C4)c23)c1C(F)(F)F (some centres unmarked) [Ex-197]	6.36
CN1CCC[C@@]2(COc3nc(N4CCOC[C@@](C)(O)C4)c4c(n3)sc3c(-c5c(C6CC6)c(C(F)(F)F)cc6[nH]ncc56)nccc34)CCC[C@@H]12 [Ex-205]	8.40
Cc1cc2[nH]ncc2c(-c2nccc3c2sc2nc(OC[C@]4(CN(C)C)CC4(F)F)nc(N4CCOC[C@@](C)(O)C4)c23)c1C(F)(F)F [Ex-130]	6.94
Cc1cc2[nH]ncc2c(-c2nccc3c2sc2nc(OC[C@@]45CCCN4C[C@H](F)C5)nc(N4CCOC[C@@](C)(O)C4)c23)c1C1=CCCC1 [Ex-140]	6.74
COc1cc2c3c(N4CCOC[C@@](C)(O)C4)nc(OC[C@@]45CCCN4C[C@H](F)C5)nc3n(C)c2c(-c2c(C(F)(F)F)c(C)cc3[nH]ncc23)n1 [Ex-26]	6.72
CCc1cc2[nH]ncc2c(-c2nccc3c2sc2nc(OC[C@@]45CCCN4C[C@H](F)C5)nc(N4CCOC[C@@](C)(O)C4)c23)c1C1CC1 [Ex-48]	7.30
C[C@@]1(O)COCCN(c2nc(OC[C@@]34CCCN3C[C@H](F)C4)nc3sc4c(-c5cc(O)cc(Cl)c5C5CC5)nccc4c23)C1 [Ex-124]	7.40
CN1CCC[C@@H]1COc1nc(N2CCOC[C@@](C)(O)C2)c2c(n1)sc1c(-c3c(C4CC4)c(C(F)(F)F)cc4[nH]ncc34)nccc12 [Ex-81]	6.78
C#Cc1c(C)cc2[nH]ncc2c1-c1nccc2c3c(N4CCOC[C@@](C)(O)C4)nc(OC[C@@]45CCCN4C[C@H](F)C5)nc3n(C)c12 (single isomer, unassigned) [Ex-7]	7.37
CC1=CCc2cc3[nH]ncc3c(-c3nccc4c3sc3nc(OC[C@@]56CCCN5C[C@H](F)C6)nc(N5CCOC[C@@](C)(O)C5)c34)c21 [Ex-106]	7.26
CCOc1c(C)cc2[nH]ncc2c1-c1nccc2c1sc1nc(OC[C@@]34CCCN3C[C@H](F)C4)nc(N3CCOC[C@@](C)(O)C3)c12 [Ex-38]	6.62
C[C@@]1(O)COCCN(c2nc(OC[C@@]34CCCN3C[C@H](F)C4)nc3sc4c(-c5cccc(Cl)c5C5CC5)nccc4c23)C1 [Ex-122]	6.04
CN1CCC[C@H]1COc1nc(N2CCOC[C@@](C)(O)C2)c2c(n1)sc1c(-c3c(C4CC4)c(C(F)(F)F)cc4[nH]ncc34)nccc12 [Ex-79]	8.09
C#Cc1cc(F)cc2cc3[nH]ncc3c(-c3nccc4c3sc3nc(OC[C@@]56CCCN5C[C@H](F)C6)nc(N5CCOC[C@@](C)(O)C5)c34)c12 [Ex-165]	7.73
C[C@@H]1CC[C@@H](COc2nc(N3CCOC[C@@](C)(O)C3)c3c(n2)sc2c(-c4c(C5CC5)c(C(F)(F)F)cc5[nH]ncc45)nccc23)N1C [Ex-86]	7.47
C=C1CCCc2cc3[nH]ncc3c(-c3nccc4c3sc3nc(OC[C@@]56CCCN5C[C@H](F)C6)nc(N5CCOC[C@@](C)(O)C5)c34)c21 [Ex-115]	7.97
C[C@@]1(O)COCCN(c2nc(OC[C@]3(CN4C[C@H]5CCCO[C@H]5C4)CC3(F)F)nc3sc4c(-c5c(C6(F)CC6)c(Cl)cc6[nH]ncc56)nccc4c23)C1 [Ex-255]	7.73
C=Cc1c(C)cc2[nH]ncc2c1-c1nccc2c1sc1nc(OC[C@@]34CCCN3C[C@H](F)C4)nc(N3CCOC[C@@](C)(O)C3)c12 [Ex-35]	7.18
[2H]C1([2H])CC[C@]2(COc3nc(N4CCOC[C@@](C)(O)C4)c4c(n3)sc3c(-c5c(C6CC6)c(Cl)cc6[nH]ncc56)nccc34)N1C[C@H](F)C2([2H])[2H] [Ex-210]	7.91
Cc1cc2[nH]ncc2c(-c2nccc3c2sc2nc(OC[C@@]45CCCN4C[C@H](F)C5)nc(N4CCCC5(CNC(=O)C5)C4)c23)c1C(F)(F)F (some centres unmarked) [Ex-193]	5.92
C[C@@]1(O)COCCN(c2nc(OC[C@]3(CN4CCC5(CC5)C4)CC3(F)F)nc3sc4c(-c5c(C6(F)CC6)c(Cl)cc6[nH]ncc56)nccc4c23)C1 [Ex-262]	7.65
C=C1CN2C[C@H](F)C[C@@]2(COc2nc(N3CCOC[C@@](C)(O)C3)c3c(n2)sc2c(-c4c(C5CC5)c(Cl)cc5[nH]ncc45)nccc23)C1 [Ex-223]	7.61
C[C@@]1(O)COCCN(c2nc(OC[C@@]34CCCN3C[C@H](F)C4)nc3sc4c(-c5c(C6(F)CC6)c(Cl)cc6[nH]ncc56)nccc4c23)C1 [Ex-52]	7.93
